From: patent US20240216513A1

Assay: In vivo pharmacokinetic study in mice (i.v. or s.c.), FAC and payload in blood
Set-up: species or system mouse
Settings: male, C57/B16, whole blood, iv; API i.v.; listed as note (20 mg/kg), species taken as mouse; read-out: Payload AUC-uM.h (unconjugated degrader dosed, first payload cell)
MEASUREMENT NAME: AUC (µM·h)

>  <SMILES ENTRY>
COc1ccc(C(=O)N2CCC3(CCN(CCc4ccc(-c5cc6c(-c7cc(F)cc(NC(=O)N8C[C@H](CC(C)C)[C@@H](O)C8)c7C)ncnc6[nH]5)cc4)CC3)CC2)cc1N1CCC(=O)NC1=O

>  <ASSAY VALUE>
15.2

$$$$

---

Measured Plasma stability (h) mouse by item
Assay: BTK FAC plasma stability assay, mouse plasma
Format: in vitro ADME
Conditions: incubation to 24 h

>  <COMPOUND>
COc1ccc(C(=O)N2CCC3(CCN(CCc4ccc(-c5cc6c(-c7cc(F)cc(NC(=O)c8ccc(C(C)(C)O)cc8F)c7C)ncnc6[nH]5)cc4)CC3)CC2)cc1N1CCC(=O)NC1=O

>  <QUAL>
=

>  <Plasma stability (h) mouse>
27.1

$$$$
>  <COMPOUND>
CCCCCCCCCCCN(C(=O)CCCCCCCCCC(=O)O)C(CCC(=O)NCCOCCOCCOCCOCCOCCOCCOCCOCCOCCOCCOCCOCCC(=O)N1CCN(CC(=O)OC(C)(C)c2ccc(C(=O)Nc3cc(F)cc(-c4ncnc5[nH]c(-c6ccc(CCN7CCC8(CC7)CCN(C(=O)c7ccc(OC)c(N9CCC(=O)NC9=O)c7)CC8)cc6)cc45)c3C)c(F)c2)CC1)C(=O)O (stereo not drawn)

>  <QUAL>
>

>  <Plasma stability (h) mouse>
48

$$$$
>  <COMPOUND>
CCCCCCCCCCCN(C(=O)CCCCCCCCCC(=O)O)C(CCC(=O)NCCOCCOCCOCCOCCOCCOCCOCCOCCOCCOCCOCCOCCC(=O)NCCC(=O)OC(C)(C)c1ccc(C(=O)Nc2cc(F)cc(-c3ncnc4[nH]c(-c5ccc(CCN6CCC7(CC6)CCN(C(=O)c6ccc(OC)c(N8CCC(=O)NC8=O)c6)CC7)cc5)cc34)c2C)c(F)c1)C(=O)O (stereo not drawn)

>  <QUAL>
=

>  <Plasma stability (h) mouse>
27.3

$$$$
>  <COMPOUND>
CCCCCCCCCCCN(C(=O)CCCCCCCCCC(=O)O)C(CCC(=O)NCCOCCOCCOCCOCCOCCOCCOCCOCCOCCOCCOCCOCCC(=O)N(CC)CC(=O)OC(C)(C)c1ccc(C(=O)Nc2cc(F)cc(-c3ncnc4[nH]c(-c5ccc(CCN6CCC7(CC6)CCN(C(=O)c6ccc(OC)c(N8CCC(=O)NC8=O)c6)CC7)cc5)cc34)c2C)c(F)c1)C(=O)O (stereo not drawn)

>  <QUAL>
>

>  <Plasma stability (h) mouse>
48

$$$$
>  <COMPOUND>
CCCCCCCCCCCN(C(=O)CCCCCCCCCC(=O)O)[C@@H](CCC(=O)NCCOCCOCCOCCOCCOCCOCCOCCOCCOCCOCCOCCOCCC(=O)NCCCC(=O)OC(C)(C)c1ccc(C(=O)Nc2cc(F)cc(-c3ncnc4[nH]c(-c5ccc(CCN6CCC7(CC6)CCN(C(=O)c6ccc(OC)c(N8CCC(=O)NC8=O)c6)CC7)cc5)cc34)c2C)c(F)c1)C(=O)O

>  <QUAL>
=

>  <Plasma stability (h) mouse>
28.6

$$$$
>  <COMPOUND>
COc1ccc(C(=O)N2CCC3(CCN(CCc4ccc(-c5cc6c(-c7cc(F)cc(NC(=O)c8ccc(C(C)(C)OC(=O)CNC(=O)CCOCCOCCOCCOCCOCCOCCOCCOCCOCCOCCOCCOCCNC(C)=O)cc8F)c7C)ncnc6[nH]5)cc4)CC3)CC2)cc1N1CCC(=O)NC1=O

>  <QUAL>
=

>  <Plasma stability (h) mouse>
5.1

$$$$
>  <COMPOUND>
CCCCCCCCCCCN(C(=O)CCCCCCCCCC(=O)O)C(CCC(=O)NCCOCCOCCOCCOCCC(=O)NCC(=O)OC(C)(C)c1ccc(C(=O)Nc2cc(F)cc(-c3ncnc4[nH]c(-c5ccc(CCN6CCC7(CC6)CCN(C(=O)c6ccc(OC)c(N8CCC(=O)NC8=O)c6)CC7)cc5)cc34)c2C)c(F)c1)C(=O)O (stereo not drawn)

>  <QUAL>
=

>  <Plasma stability (h) mouse>
10.1

$$$$
>  <COMPOUND>
CCCCCCCCCCCN(C(=O)CCCCCCCCCC(=O)O)C(CCC(=O)NCCOCCOCCOCCOCCOCCOCCOCCOCCOCCOCCOCCOCCC(=O)NCC(=O)OC(C)(C)c1ccc(C(=O)Nc2cc(F)cc(-c3ncnc4[nH]c(-c5ccc(CCN6CCC7(CC6)CCN(C(=O)c6ccc(OC)c(N8CCC(=O)NC8=O)c6)CC7)cc5)cc34)c2C)c(F)c1)C(=O)O (stereo not drawn)

>  <QUAL>
=

>  <Plasma stability (h) mouse>
28

$$$$
>  <COMPOUND>
CCCCCCCCCCCN(C(=O)CCCCCCCCCC(=O)O)[C@@H](CCC(=O)NCCOCCOCCOCCOCCOCCOCCOCCOCCOCCOCCOCCOCCC(=O)N(CCC(=O)OC(C)(C)c1ccc(C(=O)Nc2cc(F)cc(-c3ncnc4[nH]c(-c5ccc(CCN6CCC7(CC6)CCN(C(=O)c6ccc(OC)c(N8CCC(=O)NC8=O)c6)CC7)cc5)cc34)c2C)c(F)c1)CC(=O)O)C(=O)O

>  <QUAL>
>

>  <Plasma stability (h) mouse>
48

$$$$
>  <COMPOUND>
CCCCCCCCCCCN(C(=O)CCCCCCCCCC(=O)O)C(CCC(=O)NCCOCCOCCOCCOCCOCCOCCOCCOCCOCCOCCOCCOCCC(=O)N[C@H](C)C(=O)OC(C)(C)c1ccc(C(=O)Nc2cc(F)cc(-c3ncnc4[nH]c(-c5ccc(CCN6CCC7(CC6)CCN(C(=O)c6ccc(OC)c(N8CCC(=O)NC8=O)c6)CC7)cc5)cc34)c2C)c(F)c1)C(=O)O (stereo partly drawn)

>  <QUAL>
>

>  <Plasma stability (h) mouse>
48

$$$$
>  <COMPOUND>
CCCCCCCCCCCN(C(=O)CCCCCCCCCC(=O)O)C(CCC(=O)NCCOCCOCCOCCOCCOCCOCCOCCOCCOCCOCCOCCOCCOCCOCCOCCOCCC(=O)NCC(=O)OC(C)(C)c1ccc(C(=O)Nc2cc(F)cc(-c3ncnc4[nH]c(-c5ccc(CCN6CCC7(CC6)CCN(C(=O)c6ccc(OC)c(N8CCC(=O)NC8=O)c6)CC7)cc5)cc34)c2C)c(F)c1)C(=O)O (stereo not drawn)

>  <QUAL>
=

>  <Plasma stability (h) mouse>
4.6

$$$$
>  <COMPOUND>
CCCCCCCCCCCN(C(=O)CCCCCCCCCC(=O)O)C(CCC(=O)NCCOCCOCCOCCOCCOCCOCCOCCOCCOCCOCCOCCOCCC(=O)N[C@@H](C)CC(=O)OC(C)(C)c1ccc(C(=O)Nc2cc(F)cc(-c3ncnc4[nH]c(-c5ccc(CCN6CCC7(CC6)CCN(C(=O)c6ccc(OC)c(N8CCC(=O)NC8=O)c6)CC7)cc5)cc34)c2C)c(F)c1)C(=O)O (stereo partly drawn)

>  <QUAL>
>

>  <Plasma stability (h) mouse>
48

$$$$
